Species: Oryctolagus cuniculus
Assay: Calcium channel-blocking activity by determined by ability to antagonize calcium-induced contractions of isolated rabbit aortic strips
Assay type: functional
Conditions: Aorta, read-out: pA2 (converted)
Record form. Attribute: Kb. Fill in for each entry.
Answers are plain numbers, in nM.

N#Cc1ccc(OCCCN2CCC(C(c3ccc(F)cc3)c3ccc(F)cc3)CC2)cc1 :: 5.01

# batch size: 7; output Kb per entry
1. COc1cc(C(C)=O)ccc1OCCCN1CCC(CC(C#N)(c2ccc(F)cc2)c2ccc(F)cc2)C1 (stereo not drawn)
2. COc1cc(C(C)=O)ccc1OCCCN1CCC(C(O)(c2ccc(F)c(F)c2)c2ccc(F)c(F)c2)CC1
3. Fc1ccc(C(c2ccc(F)cc2)C2CCN(CCOc3ccc4ccccc4c3)CC2)cc1
4. COc1cc(C(C)=O)ccc1OCCCN1CCC(C(c2ccc(F)cc2)c2ccccn2)CC1 (stereo not drawn)
5. COc1cc(C(C)=O)ccc1OCCCN1CCCC(C(C#N)(c2ccc(F)cc2)c2ccc(F)cc2)C1 (stereo not drawn)
6. COc1cc(C(C)=O)ccc1OCCN1CCC(C(c2ccc(F)cc2)c2ccc(F)cc2)CC1
7. COc1cc(C(C)=O)ccc1OCCCN1CCC(C(c2cccc(F)c2)c2cccc(F)c2)CC1

1. 10
2. 2.51
3. 3.98
4. 158
5. 7.94
6. 6.31
7. 3.16

# batch size: 5; output Kb per entry
1. CC(=O)c1ccc(OCCCN2CCC(C(c3ccc(F)cc3)c3ccc(F)cc3)CC2)cc1
2. COC(=O)c1ccc(OCCCN2CCC(C(c3ccc(F)cc3)c3ccc(F)cc3)CC2)c(OC)c1
3. COc1cc(OCCCN2CCC(C(c3ccc(F)cc3)c3ccc(F)cc3)CC2)ccc1C(C)=O
4. COc1cc(C(C)=O)ccc1OCCCN1CCC(C(C#N)(c2ccc(F)cc2)c2ccc(F)cc2)C1 (stereo not drawn)
5. COc1ccc([C@@H]2Sc3ccccc3N(CCN(C)C)C(=O)[C@@H]2OC(C)=O)cc1

1. 2.51
2. 1.26
3. 3.16
4. 6.31
5. 20

====

Species on record: Oryctolagus cuniculus
Experiment: Calcium channel-blocking activity by determined by ability to antagonize calcium-induced contractions of isolated rabbit aortic strips
Format: functional
Conditions: Aorta, read-out: pA2 (converted)
Record form. Attribute: Kb. Fill in for each entry.
One number for each entry, in nM.

# batch size: 7; output Kb per entry
1. O=S(=O)(CCCN1CCC(C(c2ccc(F)cc2)c2ccc(F)cc2)CC1)c1ccccc1
2. COc1cc(C(C)=O)ccc1OCCCN1CCC(C(NC(C)=O)(c2ccc(F)cc2)c2ccc(F)cc2)CC1
3. Fc1ccc(C(c2ccc(F)cc2)C2CCN(CCOc3cccc4ccccc34)CC2)cc1
4. COc1cc(C(C)=O)ccc1OCCCCCN1CCC(C(c2ccc(F)cc2)c2ccc(F)cc2)CC1
5. Fc1ccc(C(c2ccc(F)cc2)C2CCN(CCCOc3ccc(Br)cc3)CC2)cc1
6. COc1cc(C(C)=O)ccc1OCCCN1CCC(CC(c2ccc(F)cc2)c2ccc(F)cc2)CC1
7. Cc1cccc(C)c1NC(=O)CN1CCN(CCCC(c2ccc(F)cc2)c2ccc(F)cc2)CC1

1. 20
2. 63.1
3. 12.6
4. 3.16
5. 1.58
6. 3.16
7. 31.6

# batch size: 2; output Kb per entry
1. COc1cc(C(C)=O)ccc1OCCCCCCN1CCC(C(c2ccc(F)cc2)c2ccc(F)cc2)CC1
2. COc1cc(C(C)=O)ccc1OCCCN1CCC(C(C#N)(c2ccc(F)cc2)c2ccc(F)cc2)CC1

6.31
2

====

Species: Oryctolagus cuniculus
Assay: Calcium channel-blocking activity by determined by ability to antagonize calcium-induced contractions of isolated rabbit aortic strips
Type: functional
Details: Aorta, read-out: pA2 (converted)
assay readout: Kb (nM)
Give bare numbers, in nM.

COc1cc(C(C)=O)ccc1OCCCN1CCC(C(c2ccc(F)cc2)c2ccc(F)c(F)c2)CC1 (centres undefined) :: 1.26
COc1cc(C(C)=O)ccc1OCCCN1CCC(C(N)(c2ccc(F)cc2)c2ccc(F)cc2)CC1 :: 31.6

# batch size: 5; output Kb per entry
1. Nc1ccc(OCCCN2CCC(C(c3ccc(F)cc3)c3ccc(F)cc3)CC2)cc1
2. Fc1ccc(C(c2ccc(F)cc2)C2CCN(CCCOc3ccccc3)CC2)cc1
3. COc1cc(C(C)O)ccc1OCCCN1CCC(C(c2ccc(F)cc2)c2ccc(F)cc2)CC1 (centres undefined)
4. COc1cc(C(C)=O)ccc1OCCCN1CCC(C(c2ccccc2)c2ccc(F)cc2)CC1 (centres undefined)
5. COc1cc(C#N)ccc1OCCCN1CCC(C(c2ccc(F)cc2)c2ccc(F)cc2)CC1

1: 31.6; 2: 1.58; 3: 10; 4: 6.31; 5: 2

# batch size: 2; output Kb per entry
1. COc1ccc(C(c2ccc(OC)cc2)C2CCN(CCCOc3ccc(C(C)=O)cc3OC)CC2)cc1
2. NC(=O)c1ccc(OCCCN2CCC(C(c3ccc(F)cc3)c3ccc(F)cc3)CC2)cc1

1. 10
2. 31.6

====

Record form. Attribute: Kb. Fill in for each entry.
Species on record: Oryctolagus cuniculus
Test: Calcium channel-blocking activity by determined by ability to antagonize calcium-induced contractions of isolated rabbit aortic strips
Format: functional
Settings: Aorta, read-out: pA2 (converted)
One number for each entry, in nM.

Completed entries (count: 4):
COc1ccc(OCCCN2CCC(C(c3ccc(F)cc3)c3ccc(F)cc3)CC2)cc1 :: 2.51
COc1cc(C(C)=O)ccc1OCCCN1CCCC(CC(C#N)(c2ccc(F)cc2)c2ccc(F)cc2)C1 (stereo not given) :: 12.6
CC(C)(C)c1ccc(OCCCN2CCC(C(c3ccc(F)cc3)c3ccc(F)cc3)CC2)cc1 :: 1
Fc1ccc(C(c2ccc(F)cc2)N2CCN(C/C=C/c3ccccc3)CC2)cc1 :: 5.01

Turning now to a further compound:
Would you mind telling me what Kb value was observed for COc1cc(C(C)=O)ccc1OCCCN1CCC(C(c2ccc(Cl)cc2)c2ccc(Cl)cc2)CC1 ?
2.51

// data source = ChEMBL document CHEMBL1125890
